- experimental target: pre-pro-human insulin

>  <protein>
trypsin variant SEQ ID NO: 114 (protein) IVGGYTCAANSIPYQVSLNSGSHRCGGSLINSQWVVSAAHCYKPRIQVRLGEHNIHVLEGNEQFINAAKIITHPNFNGNTLDNDIMLIKLSSPATLNSAVATVSLPTSCAAAGTECLISGWGNTASSGSSYPSLLQCLKAPVLSDSSCKSSYPGQITGNMICVGFLEGGADSCQGDSGGPVVCNGQLQGIVSSGYGCAQKNKPGVYTKVCNYVNWIQQTIAAN

>  <sign qualifier>
>

>  <Selectivity, %>
90

$$$$
>  <protein>
trypsin variant SEQ ID NO: 121 (protein) IVGGYTCAANSIPYQVSLNSGSHRCGGSLINSQWVVSAAHCYKSRIQVRLGEHNIDVLEGNEQFINAAKIITHPNFNGNTLDNDIMLIKLSSPATLNSRVATVSLPRSCAAAGTECLISGWGNTKSSGSSYPSLLQCLKAPVLSDSSCKSSYPGQITGNMICVGFLEGGIDACQGDSGGPVVCNGQLQGIVSSGYGCAQKNKPGVYTKVCNYVNWIQQTIAAN

>  <sign qualifier>
=

>  <Selectivity, %>
4.6

$$$$
